Molecular target: human mAChR M4 (Homo sapiens, UniProt P08173)
Construct: expressed in transfected cells; host or cells: CHO-K1 (American Type Culture Collection), stably expressing hM4 and Gqi5
Sequence (P08173 1-479): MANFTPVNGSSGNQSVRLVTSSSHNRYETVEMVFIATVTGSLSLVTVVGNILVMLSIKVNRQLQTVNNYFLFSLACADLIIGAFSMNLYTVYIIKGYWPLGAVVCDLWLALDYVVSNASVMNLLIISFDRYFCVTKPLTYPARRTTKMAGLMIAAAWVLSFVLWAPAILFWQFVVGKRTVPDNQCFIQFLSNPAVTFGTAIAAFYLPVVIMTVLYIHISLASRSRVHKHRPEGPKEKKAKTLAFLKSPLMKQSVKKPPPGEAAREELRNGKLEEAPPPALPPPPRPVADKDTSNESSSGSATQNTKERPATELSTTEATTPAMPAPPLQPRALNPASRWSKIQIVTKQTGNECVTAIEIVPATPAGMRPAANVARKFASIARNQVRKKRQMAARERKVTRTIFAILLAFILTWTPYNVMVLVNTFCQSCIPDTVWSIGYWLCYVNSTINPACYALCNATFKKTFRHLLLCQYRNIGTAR
Test: mAChR M4 cell-based functional assay: calcium mobilization (Fluo-4, FDSS), potentiation of EC20 acetylcholine response in hM4-Gqi5 CHO-K1 cells
Settings: CHO-K1, % ACh maximum at 30 μM; human M4
Description: […] Calcium flux was measured using the Functional Drug Screening System (FDSS) 6000 or 7000 (Hamamatsu Corporation, Tokyo, Japan) as an increase in the fluorescent static ratio. […] Agonist activity was analyzed as a concentration-dependent increase in calcium mobilization upon compound addition. Positive allosteric modulator activity was analyzed as a concentration-dependent increase in the EC20 acetylcholine response. […]
property: Emax at 30 µM (%)

# given smiles, unit text, reported
records = [
    ("Cc1cc2nccc(=O)n2nc1N1CCc2ncc(-c3cccnc3C(F)F)cc2C1", "%", 79),
    ("Cc1cc(F)c(F)c(-c2cnc3c(c2)CN(c2nn4c(=O)cc(C)nc4c(C)c2C)CC3)c1", "%", 82),
    ("Cc1cc2nccc(=O)n2nc1N1CCc2ncc(Nc3cncc(F)c3)cc2C1", "%", 82),
]
